- System: 521955-158-R2-J5-PDC complex spheroid growth, % test/control
- ASSAY DETAILS: Anticancer human tumor 521955-158-R2-J5-PDC patient-derived pancreatic carcinoma cell line growth inhibition [Asc]
- COND: second compound 0.3 µM; first compound 0.0316 µM; stronger effect = lower value
QUANTITY NAME: viability, T/C (%)
Give bare numbers, in %.

Solved entries (count: 2):
1) C=CC(=O)N1CCN(c2nc(=O)n(-c3c(C)ccnc3C(C)C)c3nc(-c4c(O)cccc4F)c(F)cc23)C(C)C1 (stereo not drawn) + CCN1C(C(=O)NC23CCC(C(=O)O)(CC2)CC3)C(c2cccc(Cl)c2F)C2(C(=O)Nc3cc(Cl)ccc32)C12CCCCC2: 76.2
2) O=C(c1ccc(F)c(F)c1Nc1ccc(I)cc1F)N1CC(O)([C@@H]2CCCCN2)C1 + CCN1C(C(=O)NC23CCC(C(=O)O)(CC2)CC3)C(c2cccc(Cl)c2F)C2(C(=O)Nc3cc(Cl)ccc32)C12CCCCC2: 85.2

# next compound below
Q) Form: Entry = NC1CCC(NC2CC2c2ccccc2)CC1 (stereo not drawn) + CCN1C(C(=O)NC23CCC(C(=O)O)(CC2)CC3)C(c2cccc(Cl)c2F)C2(C(=O)Nc3cc(Cl)ccc32)C12CCCCC2 | System = 521955-158-R2-J5-PDC complex spheroid growth, % test/control | viability, T/C = ____
A) 48.8

----------
- System: 521955-158-R2-J5-PDC complex spheroid growth, % test/control
- ASSAY DETAILS: Anticancer human tumor 521955-158-R2-J5-PDC cell line growth inhibition [Asc];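 note: spheroids exposed to agents for 7 days before readout; 100% = DMSO vehicle control viability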
- COND: second compound 0.0316 µM; first compound 0.316 µM; stronger effect = lower value
QUANTITY NAME: viability, T/C

Solved entries (count: 2):
1) C#Cc1c(F)ccc2cc(O)cc(-c3ncc4c(N5CC6CCC(C5)N6)nc(OCC56CCCN5CC(F)C6)nc4c3F)c12 (stereo not drawn) + CNC(C)C(=O)NC1CN(S(=O)(=O)c2cccc(S(=O)(=O)N3CCC4CCC(C(=O)NC(c5ccccc5)c5ccccc5)N4C(=O)C(NC(=O)C(C)NC)C3)c2)CCC2CCC(C(=O)NC(c3ccccc3)c3ccccc3)N2C1=O: 19.4%
2) O=C(c1cc(Cc2n[nH]c(=O)c3ccccc23)ccc1F)N1CCN(C(=O)C2CC2)CC1 + CNC(C)C(=O)NC1CN(S(=O)(=O)c2cccc(S(=O)(=O)N3CCC4CCC(C(=O)NC(c5ccccc5)c5ccccc5)N4C(=O)C(NC(=O)C(C)NC)C3)c2)CCC2CCC(C(=O)NC(c3ccccc3)c3ccccc3)N2C1=O: 98.6%

Q) Form: Entry = O=C(c1ccc(F)c(F)c1Nc1ccc(I)cc1F)N1CC(O)([C@@H]2CCCCN2)C1 + CNC(C)C(=O)NC1CN(S(=O)(=O)c2cccc(S(=O)(=O)N3CCC4CCC(C(=O)NC(c5ccccc5)c5ccccc5)N4C(=O)C(NC(=O)C(C)NC)C3)c2)CCC2CCC(C(=O)NC(c3ccccc3)c3ccccc3)N2C1=O | System = 521955-158-R2-J5-PDC complex spheroid growth, % test/control | viability, T/C = ____
A) 25.5%

----------
- System: 521955-158-R2-J5-PDC complex spheroid growth, % test/control
- ASSAY DETAILS: Anticancer human tumor 521955-158-R2-J5-PDC cell line growth inhibition [Asc]; active = viability on the fitted dose curve at most 10% of control; inactive = the rest;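 note: spheroids exposed to agents for 7 days before readout; 100% = DMSO vehicle control viability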
- COND: second compound 0.0316 µM; first compound 10 µM
Give your call using only these classes: 1 for active, -1 for inactive

Sample answers from the record:
1) C=CC(=O)N1CCN(c2nc(=O)n(-c3c(C)ccnc3C(C)C)c3nc(-c4c(O)cccc4F)c(F)cc23)C(C)C1 (centres undefined) + CNC(C)C(=O)NC1CN(S(=O)(=O)c2cccc(S(=O)(=O)N3CCC4CCC(C(=O)NC(c5ccccc5)c5ccccc5)N4C(=O)C(NC(=O)C(C)NC)C3)c2)CCC2CCC(C(=O)NC(c3ccccc3)c3ccccc3)N2C1=O: -1
2) C#Cc1c(F)ccc2cc(O)cc(-c3ncc4c(N5CC6CCC(C5)N6)nc(OCC56CCCN5CC(F)C6)nc4c3F)c12 (centres undefined) + CNC(C)C(=O)NC1CN(S(=O)(=O)c2cccc(S(=O)(=O)N3CCC4CCC(C(=O)NC(c5ccccc5)c5ccccc5)N4C(=O)C(NC(=O)C(C)NC)C3)c2)CCC2CCC(C(=O)NC(c3ccccc3)c3ccccc3)N2C1=O: -1

Q) Hello, I am checking results. What call was entered for O=C(c1cc(Cc2n[nH]c(=O)c3ccccc23)ccc1F)N1CCN(C(=O)C2CC2)CC1 + CNC(C)C(=O)NC1CN(S(=O)(=O)c2cccc(S(=O)(=O)N3CCC4CCC(C(=O)NC(c5ccccc5)c5ccccc5)N4C(=O)C(NC(=O)C(C)NC)C3)c2)CCC2CCC(C(=O)NC(c3ccccc3)c3ccccc3)N2C1=O ?
A) -1

Q) Hello, I am checking results. What call was entered for C=C(F)C(=O)N1CCN(c2nc(OCC3CCCN3C)nc3c2CCN(c2cccc4cccc(Cl)c24)C3)CC1CC#N (centres undefined) + CNC(C)C(=O)NC1CN(S(=O)(=O)c2cccc(S(=O)(=O)N3CCC4CCC(C(=O)NC(c5ccccc5)c5ccccc5)N4C(=O)C(NC(=O)C(C)NC)C3)c2)CCC2CCC(C(=O)NC(c3ccccc3)c3ccccc3)N2C1=O ?
A) 1

Where do the numbers come from? From PubChem BioAssay AID1963430.
